// data source = ChEMBL document CHEMBL3272080

Here the recorded Rf is given for each entry.
# experimentDescription: Retardation factor in 2-butanol-0.1 N ammonium hydroxide at 1:1 ratio by TLC
# Type: physicochemical
*1 amine or outer side, *2 acyl side, *3 side chain or, on linkers, in order; H or OH if unused. Where a SMILES comes first, the peptide text is derived from it. [ ]: non-standard residue; d: D form. X1 = CCCCCCCCCCCCNCCC[C@@H](N[*:1])C(=O)[*:2]; pGlu = O=C1CC[C@@H](C(=O)O)N1
Respond numerically, and do not add a unit to the figure.

// worked examples, Rf included
>  <compound>
CCCCCCCCCCCCNCCC[C@@H](NC(=O)[C@H](Cc1ccc(O)cc1)NC(=O)[C@H](CO)NC(=O)[C@H](Cc1c[nH]c2ccccc12)NC(=O)[C@H](Cc1cnc[nH]1)NC(=O)[C@@H]1CCC(=O)N1)C(=O)N[C@@H](CC(C)C)C(=O)N[C@@H](CCCNC(=N)N)C(=O)N1CCC[C@H]1C(=O)NCC

>  <Rf>
0.37

$$$$
>  <compound>
CCCCCCCCCCCCNCCCC[C@@H](NC(=O)[C@H](Cc1ccc(O)cc1)NC(=O)[C@H](CO)NC(=O)[C@H](Cc1c[nH]c2ccccc12)NC(=O)[C@H](Cc1cnc[nH]1)NC(=O)[C@@H]1CCC(=O)N1)C(=O)N[C@@H](CC(C)C)C(=O)N[C@@H](CCCNC(=N)N)C(=O)N1CCC[C@H]1C(=O)NCC(N)=O

>  <Rf>
0.37

$$$$
>  <compound>
CCCCCCCCCCCCNCCC[C@@H](NC(=O)[C@H](Cc1ccc(O)cc1)NC(=O)[C@H](CO)NC(=O)[C@H](Cc1c[nH]c2ccccc12)NC(=O)[C@@H]1CCC(=O)N1)C(=O)N[C@@H](CC(C)C)C(=O)N[C@@H](CCCNC(=N)N)C(=O)N1CCC[C@H]1C(=O)NCC ([pGlu]WSY[X1]LRP-NHEt)

>  <Rf>
0.46

$$$$
>  <compound>
CC(=O)NCCC[C@@H](NC(=O)[C@H](Cc1ccc(O)cc1)NC(=O)[C@H](CO)NC(=O)[C@H](Cc1c[nH]c2ccccc12)NC(=O)[C@H](Cc1cnc[nH]1)NC(=O)[C@@H]1CCC(=O)N1)C(=O)N[C@@H](CC(C)C)C(=O)N[C@@H](CCCNC(=N)N)C(=O)N1CCC[C@H]1C(=O)NCC(N)=O

>  <Rf>
0.34

$$$$
>  <compound>
CCCCCCCCCCCCNCCCC[C@@H](NC(=O)[C@H](Cc1ccc(O)cc1)NC(=O)[C@H](CO)NC(=O)[C@H](Cc1c[nH]c2ccccc12)NC(=O)[C@H](Cc1cnc[nH]1)NC(=O)[C@@H]1CCC(=O)N1)C(=O)N[C@@H](CC(C)C)C(=O)N[C@@H](CCCNC(=N)N)C(=O)N1CCC[C@H]1C(=O)NCC

>  <Rf>
0.38

$$$$
>  <compound>
CCCCCCCCCCCCNCCCC[C@@H](NC(=O)[C@H](Cc1ccc(O)cc1)NC(=O)[C@H](CO)NC(=O)[C@H](Cc1c[nH]c2ccccc12)NC(=O)[C@@H]1CCC(=O)N1)C(=O)N[C@@H](CC(C)C)C(=O)N[C@@H](CCCNC(=N)N)C(=O)N1CCC[C@H]1C(=O)NCC

>  <Rf>
0.45

$$$$
>  <compound>
CCCCCCCCCCCCNCCC[C@@H](NC(=O)[C@H](Cc1ccc(O)cc1)NC(=O)[C@H](CO)NC(=O)[C@H](Cc1c[nH]c2ccccc12)NC(=O)[C@H](Cc1cnc[nH]1)NC(=O)[C@@H]1CCC(=O)N1)C(=O)N[C@@H](CC(C)C)C(=O)N[C@@H](CCCNC(=N)N)C(=O)N1CCC[C@H]1C(=O)NCC(N)=O

>  <Rf>
0.36

$$$$

Switching to the query record.
Lab book: Rf of CCCCCCCCCCCCNCCC[C@@H](NC(=O)[C@H](Cc1ccc(O)cc1)NC(=O)[C@H](CO)NC(=O)[C@H](Cc1c[nH]c2ccccc12)NC(=O)[C@@H]1CCC(=O)N1)C(=O)N[C@@H](CC(C)C)C(=O)N[C@@H](CCCNC(=N)N)C(=O)N1CCC[C@H]1C(=O)NCC(N)=O ([pGlu]WSY[X1]LRPG-NH2) noted as 0.43
